Experiment: Metabolic stability in mouse liver microsomes assessed as half life measured up to 60 mins by LC/MS analysis
Type: ADME, Microsome
// label = yes if half-life is not less than 20 min, otherwise no

Example cases with answers are listed next.
- Smiles code: "CCC1=C(CC)/C(=C/NC2CCCCC2)N=C1c1ccc(-c2ccc(OC)cc2)[nH]1"
  Classification: "yes"
- Smiles code: "CCc1ccc(C2=N/C(=C\\NC3CCCCC3)C(OC)=C2OC)[nH]1"
  Classification: "yes"
- Smiles code: "CCC1=C(CC)/C(=C/NC2CCCCCC2)N=C1c1ccc(-c2ccc(OC)cc2)[nH]1"
  Classification: "no"
- Smiles code: "CCc1ccc(C2=N/C(=C\\NC3CCCCCCC3)C(C)=C2C)[nH]1"
  Classification: "yes"
- Smiles code: "CCC1=C(CC)/C(=C/NC23CC4CC(CC(C4)C2)C3)N=C1c1ccc[nH]1"
  Classification: "no"

Given CCC1=C(CC)/C(=C/NC2CCCCCCC2)N=C1c1ccc(-c2ccccc2)[nH]1 , state whether its half-life is at least 20 min. yes

Given CCC1=C(CC)/C(=C/NC2CCCCC2)N=C1c1ccc(Cc2ccc(OC)cc2)[nH]1 , state whether its half-life is at least 20 min. yes

Given CCC1=C(CC)/C(=C/NC2CCCCC2)N=C1c1ccc(Cl)[nH]1 , state whether its half-life is at least 20 min. yes

Given CCC1=C(C)/C(=C/NC2CCCCCCC2)N=C1c1ccc(CC)[nH]1 , state whether its half-life is at least 20 min. yes

Given CCC1=C(CC)/C(=C/NC2CCCCC2)N=C1c1cc2cc(Cl)ccc2[nH]1 , state whether its half-life is at least 20 min. yes

Given CCC1=C(C)/C(=C/NC2CCCCCCC2)N=C1c1ccc(C)[nH]1 , state whether its half-life is at least 20 min. yes

Given CCC1=C(CC)/C(=C/NC2CCCCC2)N=C1c1ccc(CC)[nH]1 , state whether its half-life is at least 20 min. yes

Given CCC1=C(CC)/C(=C/NC23C[C@H]4C[C@@H](C2)C[C@@H](C3)C4)N=C1c1ccc(Cl)[nH]1 , state whether its half-life is at least 20 min. yes

Given C(/NC1CCCCC1)=C1/N=C(c2ccc[nH]2)C2=C1OCCO2 , state whether its half-life is at least 20 min. no

---

microsomal CLint at 1 h reference
Experiment: in vitro
Conditions: mouse, liver microsomes
Express the result in µL/min/mg but write the number alone.

- Smiles code: "CCC1=C(CC)/C(=C/NC23C[C@H]4C[C@@H](C2)C[C@@H](C3)C4)N=C1c1cc2cc(Cl)ccc2[nH]1"
  microsomal CLint at 1 h (µL/min/mg): 4.72
- Smiles code: "CCC1=C(CC)/C(=C/NC23C[C@H]4C[C@@H](C2)C[C@@H](C3)C4)N=C1c1ccc(Cc2ccc(OC)cc2)[nH]1"
  microsomal CLint at 1 h (µL/min/mg): 4.57
- Smiles code: "FC(F)(F)[C@H]1CC[C@H](N/C=C2\\N=C(c3ccc[nH]3)C3=C2CCCC3)CC1"
  microsomal CLint at 1 h (µL/min/mg): 5.49
- Smiles code: "[2H]C([2H])(C)c1ccc(C2=N/C(=C\\NC3CCCCCC3)C(C)=C2C)[nH]1"
  microsomal CLint at 1 h (µL/min/mg): 16
- Smiles code: "CCC1=C(CC)/C(=C/NC2CCCCC2)N=C1c1cc2cc(Cl)ccc2[nH]1"
  microsomal CLint at 1 h (µL/min/mg): 19.7

// below: microsomal CLint at 1 h requested for another compound
compound CCC1=C(CC)/C(=C/NC2CCCCC2)N=C1c1ccc(Cc2ccc(OC)cc2)[nH]1 , microsomal CLint at 1 h observed: 1.94
